B1: LINE1-mini (parent)
chain: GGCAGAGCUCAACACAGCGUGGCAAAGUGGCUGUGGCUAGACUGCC

variants of: B1; assay: self-cleavage, relative activity (ratio to wild type); higher = more cleavage; in vitro, sequencing; the parent is a self-cleaving ribozyme
Entry class follows self-cleavage: LOW (below 0.1), MEDIUM (0.1 to below 0.4), HIGH (0.4 or more)

G22C U32G
MEDIUM
U20C A25C
HIGH
A16U G19A
MEDIUM
A12U U20G
LOW

Inquiry: Class for U20A U28A ?
Reply text: HIGH

Inquiry: Class for G21U U34G ?
Reply text: MEDIUM

Inquiry: Class for A14C C31A ?
Reply text: LOW

Inquiry: Class for A24G C45U ?
Reply text: HIGH

Inquiry: Class for G7C U34C ?
Reply text: LOW
